# Test system: Escherichia coli TOP10
# assay_method_text: shrunken log2 fold change of peptide-encoding DNA abundance (4.5 h post-induction vs induction); higher = less antimicrobial activity (less host growth inhibition)
# condition: time post-induction: 4.5 h; library: site-saturation at positions 5, 18, 19, 20
Here, each record is paired with measured shrunken log2 fold change data.
quantity: shrunken log2 fold change

>>> df
           monomer_sequence  readout_value
 0  RRIRHRPPRLPRPRPRPFNIPRP         0.0518
 1  RRIRFRPPRLPRPRPRPLPIPRP          0.165
 2  RRIRERPPRLPRPRPRPYFHPRP         -0.996
 3  RRIRGRPPRLPRPRPRPDTHPRP         -0.156
 4  RRIRTRPPRLPRPRPRPQMTPRP         0.0824
 5  RRIRLRPPRLPRPRPRPKCAPRP         0.0163
 6  RRIRCRPPRLPRPRPRPGQFPRP         -0.564
 7  RRIRKRPPRLPRPRPRPYDEPRP         -0.293
 8  RRIRPRPPRLPRPRPRPHDTPRP         -0.272
 9  RRIRFRPPRLPRPRPRPGWNPRP         0.0411
10  RRIRQRPPRLPRPRPRPEWSPRP         0.0925
11  RRIRDRPPRLPRPRPRPRDEPRP           0.12
12  RRIRSRPPRLPRPRPRPGQMPRP          0.206
13  RRIRRRPPRLPRPRPRPTIHPRP        -0.0346

* * *

# Test system: Escherichia coli TOP10
# assay_method_text: shrunken log2 fold change of peptide-encoding DNA abundance (4.5 h post-induction vs induction); higher = less antimicrobial activity (less host growth inhibition)
# condition: time post-induction: 4.5 h; library: site-saturation at positions 5, 18, 19, 20
Use -0.03 as the dividing line for shrunken log2 fold change, with the line itself on the T side and lower values as F.

>>> print(df.to_string())
          monomer_sequence  qualitative_label
0  RRIRLRPPRLPRPRPRPVCYPRP                  F
1  RRIRHRPPRLPRPRPRPLVEPRP                  T
2  RRIRRRPPRLPRPRPRPKTHPRP                  T
3  RRIRYRPPRLPRPRPRPMTQPRP                  T
4  RRIRCRPPRLPRPRPRPHKIPRP                  F

* * *

# Test system: Escherichia coli TOP10
# assay_method_text: shrunken log2 fold change of peptide-encoding DNA abundance (4.5 h post-induction vs induction); higher = less antimicrobial activity (less host growth inhibition)
# condition: time post-induction: 4.5 h; library: site-saturation at positions 5, 18, 19, 20
Note that class boundaries on shrunken log2 fold change are LOW (below -0.2), MID (-0.2 to below 0.1), HIGH (0.1 or more)

           monomer_sequence  qualitative_label
 0  RRIRKRPPRLPRPRPRPFSPPRP                MID
 1  RRIRGRPPRLPRPRPRPQKTPRP                MID
 2  RRIRARPPRLPRPRPRPYTQPRP                LOW
 3  RRIRARPPRLPRPRPRPYWNPRP                LOW
 4  RRIRARPPRLPRPRPRPQWIPRP                MID
 5  RRIRCRPPRLPRPRPRPMKCPRP                MID
 6  RRIRLRPPRLPRPRPRPHDNPRP                LOW
 7  RRIRTRPPRLPRPRPRPRRLPRP               HIGH
 8  RRIRWRPPRLPRPRPRPIEDPRP                MID
 9  RRIRCRPPRLPRPRPRPRYLPRP                LOW
10  RRIRGRPPRLPRPRPRPIWNPRP               HIGH
11  RRIRLRPPRLPRPRPRPHDCPRP                MID
12  RRIRCRPPRLPRPRPRPYHRPRP                LOW
13  RRIRNRPPRLPRPRPRPWPDPRP               HIGH
14  RRIRMRPPRLPRPRPRPFVVPRP                LOW
15  RRIRKRPPRLPRPRPRPPQGPRP               HIGH
16  RRIRDRPPRLPRPRPRPQMAPRP               HIGH
17  RRIRYRPPRLPRPRPRPNLSPRP                MID
18  RRIRARPPRLPRPRPRPPSNPRP               HIGH
19  RRIRRRPPRLPRPRPRPAMQPRP               HIGH
20  RRIRNRPPRLPRPRPRPPHSPRP               HIGH
21  RRIRPRPPRLPRPRPRPPQKPRP               HIGH
22  RRIRVRPPRLPRPRPRPISHPRP                LOW
23  RRIRARPPRLPRPRPRPLAYPRP               HIGH
24  RRIRRRPPRLPRPRPRPCAIPRP               HIGH
25  RRIRDRPPRLPRPRPRPSGKPRP                LOW
26  RRIRERPPRLPRPRPRPKHHPRP                LOW
27  RRIRVRPPRLPRPRPRPHKPPRP                MID
28  RRIRWRPPRLPRPRPRPLNQPRP                MID
29  RRIRGRPPRLPRPRPRPACQPRP               HIGH
30  RRIRFRPPRLPRPRPRPVSSPRP                LOW
31  RRIRMRPPRLPRPRPRPGSPPRP               HIGH
32  RRIRMRPPRLPRPRPRPLDCPRP               HIGH
33  RRIRPRPPRLPRPRPRPRVYPRP                LOW
34  RRIRIRPPRLPRPRPRPFRFPRP                LOW
35  RRIRFRPPRLPRPRPRPLRKPRP               HIGH
36  RRIRCRPPRLPRPRPRPNWEPRP                MID
37  RRIRGRPPRLPRPRPRPGYPPRP               HIGH
38  RRIRERPPRLPRPRPRPCIFPRP                LOW
39  RRIRLRPPRLPRPRPRPSYLPRP                LOW
40  RRIRARPPRLPRPRPRPAMYPRP                MID
41  RRIRKRPPRLPRPRPRPTPFPRP               HIGH
42  RRIRIRPPRLPRPRPRPRHQPRP                LOW
43  RRIRSRPPRLPRPRPRPNMSPRP                LOW
44  RRIRSRPPRLPRPRPRPCYTPRP                MID
45  RRIRQRPPRLPRPRPRPVNTPRP                MID

* * *

# Test system: Escherichia coli TOP10
# assay_method_text: shrunken log2 fold change of peptide-encoding DNA abundance (4.5 h post-induction vs induction); higher = less antimicrobial activity (less host growth inhibition)
# condition: time post-induction: 4.5 h; library: site-saturation at positions 5, 18, 19, 20
Here, each record is paired with measured shrunken log2 fold change data.
quantity: shrunken log2 fold change

          monomer_sequence  readout_value
0  RRIRDRPPRLPRPRPRPCYCPRP         -0.148
1  RRIRQRPPRLPRPRPRPYPIPRP       -0.00931
2  RRIRGRPPRLPRPRPRPDTNPRP          0.199

* * *

# System: Escherichia coli TOP10;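 note: peptides expressed intracellularly from a pBAD plasmid library in pooled LB shake-flask culture, induced with 0.3% L-arabinose, DNA abundance read by NGS, three biological replicates, DESeq2 with apeglm shrinkage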
# assay_method_text: shrunken log2 fold change of peptide-encoding DNA abundance (4.5 h post-induction vs induction); higher = less antimicrobial activity (less host growth inhibition)
# condition: time post-induction: 4.5 h; library: site-saturation at positions 5, 18, 19, 20
Note that class boundaries on shrunken log2 fold change are band A: < -0.005; band B: ≥ -0.005 and < 0.1; band C: ≥ 0.1

>>> print(df.to_string())
           monomer_sequence  qualitative_label
 0  RRIRSRPPRLPRPRPRPKGSPRP             band B
 1  RRIRDRPPRLPRPRPRPRKKPRP             band B
 2  RRIRYRPPRLPRPRPRPPPAPRP             band C
 3  RRIRVRPPRLPRPRPRPEWCPRP             band C
 4  RRIRHRPPRLPRPRPRPQPQPRP             band A
 5  RRIRIRPPRLPRPRPRPWTWPRP             band A
 6  RRIRKRPPRLPRPRPRPRADPRP             band C
 7  RRIRPRPPRLPRPRPRPPGSPRP             band B
 8  RRIRLRPPRLPRPRPRPIMPPRP             band A
 9  RRIRWRPPRLPRPRPRPKLTPRP             band C
10  RRIRTRPPRLPRPRPRPQATPRP             band C
11  RRIRYRPPRLPRPRPRPTIDPRP             band A
12  RRIRYRPPRLPRPRPRPRMYPRP             band A
